TEST_SYSTEM: Serine/threonine-protein kinase pim-1 (Homo sapiens) (UniProt P11309)
Sequence (P11309 whole entry, looked up): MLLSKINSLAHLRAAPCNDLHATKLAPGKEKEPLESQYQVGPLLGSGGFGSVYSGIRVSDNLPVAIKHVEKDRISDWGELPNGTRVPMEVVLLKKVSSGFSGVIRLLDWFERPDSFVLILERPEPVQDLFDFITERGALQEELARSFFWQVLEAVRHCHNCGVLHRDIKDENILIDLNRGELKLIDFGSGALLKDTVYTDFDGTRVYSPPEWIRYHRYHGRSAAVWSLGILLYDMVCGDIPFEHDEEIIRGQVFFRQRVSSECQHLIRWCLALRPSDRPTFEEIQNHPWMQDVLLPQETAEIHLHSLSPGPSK
ASSAY_TEXT: Inhibition of human PIM1 assessed as residual activity at 1 uM relative to control
ASSAY_READOUT: Activity (%)

1) Cn1cc(/C=C2\C(=O)Nc3ccc(S(N)(=O)=O)cc32)c2ccccc21
93
2) CNS(=O)(=O)c1ccc2c(c1)/C(=C/c1cn(C)c3ccc(OC)cc13)C(=O)N2
88
3) COc1ccc2[nH]cc(/C=C3\C(=O)Nc4ccc(S(N)(=O)=O)cc43)c2c1
79
4) CN(C)S(=O)(=O)c1ccc2c(c1)/C(=C/c1cn(C)c3ccc(O)cc13)C(=O)N2
95
5) COc1ccc2c(c1)c(/C=C1\C(=O)Nc3ccc(S(=O)(=O)N(C)C)cc31)cn2C
97
6) COc1ccc2c(c1)c(/C=C1\C(=O)Nc3ccc(S(N)(=O)=O)cc31)cn2C
88

----------
TEST_SYSTEM: Serine/threonine-protein kinase PAK 4 (Homo sapiens) (UniProt O96013)
Sequence (O96013 whole entry, looked up): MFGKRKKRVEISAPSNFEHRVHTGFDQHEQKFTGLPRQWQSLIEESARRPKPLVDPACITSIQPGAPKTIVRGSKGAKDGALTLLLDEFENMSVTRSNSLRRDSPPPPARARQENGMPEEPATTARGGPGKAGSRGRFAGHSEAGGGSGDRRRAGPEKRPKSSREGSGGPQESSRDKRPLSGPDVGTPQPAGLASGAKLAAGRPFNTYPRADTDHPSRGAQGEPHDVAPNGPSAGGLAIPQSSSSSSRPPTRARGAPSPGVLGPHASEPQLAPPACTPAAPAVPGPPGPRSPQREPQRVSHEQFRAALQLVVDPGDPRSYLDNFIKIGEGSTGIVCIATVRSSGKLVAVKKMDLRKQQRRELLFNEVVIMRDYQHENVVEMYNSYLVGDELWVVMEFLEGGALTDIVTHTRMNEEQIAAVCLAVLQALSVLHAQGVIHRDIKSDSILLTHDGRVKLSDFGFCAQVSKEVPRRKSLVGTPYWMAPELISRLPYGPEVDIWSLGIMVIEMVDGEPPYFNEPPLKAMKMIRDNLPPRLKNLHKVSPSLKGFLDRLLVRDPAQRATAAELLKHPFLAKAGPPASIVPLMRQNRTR
ASSAY_TEXT: Inhibition of human PAK4 assessed as residual activity at 0.1 uM relative to control
ASSAY_READOUT: Activity (%)

1) Cn1cc(/C=C2\C(=O)Nc3ccc(S(N)(=O)=O)cc32)c2ccccc21
74
2) COc1ccc2[nH]cc(/C=C3\C(=O)Nc4ccc(S(N)(=O)=O)cc43)c2c1
93
3) COc1ccc2c(c1)c(/C=C1\C(=O)Nc3ccc(S(N)(=O)=O)cc31)cn2C
77
4) CNS(=O)(=O)c1ccc2c(c1)/C(=C/c1cn(C)c3ccc(OC)cc13)C(=O)N2
84
5) COc1ccc2c(c1)c(/C=C1\C(=O)Nc3ccc(S(=O)(=O)N(C)C)cc31)cn2C
96
6) CN(C)S(=O)(=O)c1ccc2c(c1)/C(=C/c1cn(C)c3ccc(O)cc13)C(=O)N2
95

----------
TEST_SYSTEM: Mitogen-activated protein kinase 8 (Homo sapiens)
ASSAY_TEXT: Inhibition of human JNK1 assessed as residual activity at 0.1 uM relative to control
ASSAY_READOUT: Activity (%)

1. CN(C)S(=O)(=O)c1ccc2c(c1)/C(=C/c1cn(C)c3ccc(O)cc13)C(=O)N2
105
2. COc1ccc2[nH]cc(/C=C3\C(=O)Nc4ccc(S(N)(=O)=O)cc43)c2c1
103
3. COc1ccc2c(c1)c(/C=C1\C(=O)Nc3ccc(S(=O)(=O)N(C)C)cc31)cn2C
103
4. COc1ccc2c(c1)c(/C=C1\C(=O)Nc3ccc(S(N)(=O)=O)cc31)cn2C
110
5. Cn1cc(/C=C2\C(=O)Nc3ccc(S(N)(=O)=O)cc32)c2ccccc21
121
6. CNS(=O)(=O)c1ccc2c(c1)/C(=C/c1cn(C)c3ccc(OC)cc13)C(=O)N2
103

----------
TEST_SYSTEM: Serine/threonine-protein kinase PLK1 (Homo sapiens)
ASSAY_TEXT: Inhibition of human PLK1 assessed as residual activity at 1 uM relative to control
ASSAY_READOUT: Activity (%)

1. COc1ccc2[nH]cc(/C=C3\C(=O)Nc4ccc(S(N)(=O)=O)cc43)c2c1
95
2. CNS(=O)(=O)c1ccc2c(c1)/C(=C/c1cn(C)c3ccc(OC)cc13)C(=O)N2
87
3. Cn1cc(/C=C2\C(=O)Nc3ccc(S(N)(=O)=O)cc32)c2ccccc21
91
4. COc1ccc2c(c1)c(/C=C1\C(=O)Nc3ccc(S(N)(=O)=O)cc31)cn2C
93
5. CN(C)S(=O)(=O)c1ccc2c(c1)/C(=C/c1cn(C)c3ccc(O)cc13)C(=O)N2
91
6. COc1ccc2c(c1)c(/C=C1\C(=O)Nc3ccc(S(=O)(=O)N(C)C)cc31)cn2C
93

----------
TEST_SYSTEM: Dual specificity protein kinase TTK (Homo sapiens)
Sequence (whole entry): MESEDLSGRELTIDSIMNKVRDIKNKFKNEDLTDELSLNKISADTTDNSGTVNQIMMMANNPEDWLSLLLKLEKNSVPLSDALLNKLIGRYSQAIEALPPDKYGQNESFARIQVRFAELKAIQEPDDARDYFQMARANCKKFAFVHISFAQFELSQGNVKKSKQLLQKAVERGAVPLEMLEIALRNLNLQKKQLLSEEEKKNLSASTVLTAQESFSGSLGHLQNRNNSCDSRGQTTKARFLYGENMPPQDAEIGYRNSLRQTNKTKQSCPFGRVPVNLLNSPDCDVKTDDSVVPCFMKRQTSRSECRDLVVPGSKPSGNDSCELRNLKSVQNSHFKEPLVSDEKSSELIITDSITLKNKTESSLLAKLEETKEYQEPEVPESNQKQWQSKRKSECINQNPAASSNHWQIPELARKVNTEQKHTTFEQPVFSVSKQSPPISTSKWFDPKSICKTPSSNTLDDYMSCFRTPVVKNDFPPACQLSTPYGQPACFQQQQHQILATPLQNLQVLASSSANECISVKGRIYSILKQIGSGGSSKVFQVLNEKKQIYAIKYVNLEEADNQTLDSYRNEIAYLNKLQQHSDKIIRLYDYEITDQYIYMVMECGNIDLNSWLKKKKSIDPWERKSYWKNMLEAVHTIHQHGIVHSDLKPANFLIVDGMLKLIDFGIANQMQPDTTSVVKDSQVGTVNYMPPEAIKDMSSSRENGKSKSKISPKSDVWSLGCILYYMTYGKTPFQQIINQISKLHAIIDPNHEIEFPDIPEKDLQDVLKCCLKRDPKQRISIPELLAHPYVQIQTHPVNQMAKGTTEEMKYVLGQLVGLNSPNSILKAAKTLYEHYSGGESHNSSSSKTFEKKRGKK
ASSAY_TEXT: Inhibition of human TTK assessed as residual activity at 1 uM relative to control
ASSAY_READOUT: Activity (%)

1. Cn1cc(/C=C2\C(=O)Nc3ccc(S(N)(=O)=O)cc32)c2ccccc21
85
2. COc1ccc2c(c1)c(/C=C1\C(=O)Nc3ccc(S(N)(=O)=O)cc31)cn2C
96
3. CN(C)S(=O)(=O)c1ccc2c(c1)/C(=C/c1cn(C)c3ccc(O)cc13)C(=O)N2
96
4. COc1ccc2[nH]cc(/C=C3\C(=O)Nc4ccc(S(N)(=O)=O)cc43)c2c1
80
5. CNS(=O)(=O)c1ccc2c(c1)/C(=C/c1cn(C)c3ccc(OC)cc13)C(=O)N2
86
6. COc1ccc2c(c1)c(/C=C1\C(=O)Nc3ccc(S(=O)(=O)N(C)C)cc31)cn2C
106

----------
TEST_SYSTEM: UniProtKB Q15746
Sequence (Q15746 whole entry): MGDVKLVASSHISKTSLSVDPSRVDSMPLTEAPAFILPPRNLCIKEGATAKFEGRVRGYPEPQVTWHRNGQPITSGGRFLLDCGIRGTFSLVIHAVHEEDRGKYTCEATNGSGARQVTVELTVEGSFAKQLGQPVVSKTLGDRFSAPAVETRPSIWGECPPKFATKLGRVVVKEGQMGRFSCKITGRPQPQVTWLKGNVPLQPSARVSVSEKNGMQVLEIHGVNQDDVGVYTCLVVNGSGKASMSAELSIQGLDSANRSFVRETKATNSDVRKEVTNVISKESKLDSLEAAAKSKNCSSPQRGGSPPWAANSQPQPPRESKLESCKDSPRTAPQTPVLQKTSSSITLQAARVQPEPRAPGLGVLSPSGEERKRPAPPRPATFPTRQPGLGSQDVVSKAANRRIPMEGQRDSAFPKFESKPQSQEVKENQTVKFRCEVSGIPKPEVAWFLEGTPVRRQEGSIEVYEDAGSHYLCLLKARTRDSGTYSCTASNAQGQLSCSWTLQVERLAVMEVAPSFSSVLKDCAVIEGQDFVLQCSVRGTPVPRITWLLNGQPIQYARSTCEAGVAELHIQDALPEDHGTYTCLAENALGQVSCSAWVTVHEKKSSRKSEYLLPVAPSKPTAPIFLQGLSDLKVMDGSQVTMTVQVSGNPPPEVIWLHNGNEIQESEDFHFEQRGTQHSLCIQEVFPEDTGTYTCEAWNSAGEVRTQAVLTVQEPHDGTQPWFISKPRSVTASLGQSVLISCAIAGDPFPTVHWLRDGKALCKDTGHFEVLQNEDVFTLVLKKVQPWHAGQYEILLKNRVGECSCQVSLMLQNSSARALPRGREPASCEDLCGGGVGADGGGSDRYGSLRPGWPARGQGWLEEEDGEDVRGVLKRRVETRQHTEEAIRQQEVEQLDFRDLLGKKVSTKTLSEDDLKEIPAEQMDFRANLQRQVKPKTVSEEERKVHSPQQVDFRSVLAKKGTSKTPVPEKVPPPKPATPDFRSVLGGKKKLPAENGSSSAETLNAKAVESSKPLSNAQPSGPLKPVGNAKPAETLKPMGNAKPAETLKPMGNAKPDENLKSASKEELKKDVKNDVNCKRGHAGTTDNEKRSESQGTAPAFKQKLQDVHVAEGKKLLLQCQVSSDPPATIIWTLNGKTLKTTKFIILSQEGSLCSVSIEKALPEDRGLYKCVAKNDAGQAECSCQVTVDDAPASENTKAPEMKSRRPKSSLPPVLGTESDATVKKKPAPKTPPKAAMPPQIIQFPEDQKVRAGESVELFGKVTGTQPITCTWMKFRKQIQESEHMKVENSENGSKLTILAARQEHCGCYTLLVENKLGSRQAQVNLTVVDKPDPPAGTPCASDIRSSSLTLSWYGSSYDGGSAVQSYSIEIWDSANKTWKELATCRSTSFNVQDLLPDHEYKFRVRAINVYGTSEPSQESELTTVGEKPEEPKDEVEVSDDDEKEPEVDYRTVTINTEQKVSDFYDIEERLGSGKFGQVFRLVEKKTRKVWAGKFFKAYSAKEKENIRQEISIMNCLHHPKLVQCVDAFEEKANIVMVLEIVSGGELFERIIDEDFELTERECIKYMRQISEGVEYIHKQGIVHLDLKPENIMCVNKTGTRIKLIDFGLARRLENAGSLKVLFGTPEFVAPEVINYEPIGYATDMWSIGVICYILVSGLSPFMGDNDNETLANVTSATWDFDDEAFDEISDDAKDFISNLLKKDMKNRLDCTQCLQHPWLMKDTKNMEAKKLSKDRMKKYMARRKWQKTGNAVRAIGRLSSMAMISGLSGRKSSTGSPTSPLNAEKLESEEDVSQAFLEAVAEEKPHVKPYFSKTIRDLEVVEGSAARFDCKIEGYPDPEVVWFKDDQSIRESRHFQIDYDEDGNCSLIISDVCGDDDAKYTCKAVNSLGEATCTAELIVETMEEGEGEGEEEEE
ASSAY_TEXT: Inhibition of human MYLK assessed as residual activity at 1 uM relative to control
ASSAY_READOUT: Activity (%)

1. COc1ccc2c(c1)c(/C=C1\C(=O)Nc3ccc(S(N)(=O)=O)cc31)cn2C
90
2. Cn1cc(/C=C2\C(=O)Nc3ccc(S(N)(=O)=O)cc32)c2ccccc21
90
3. CNS(=O)(=O)c1ccc2c(c1)/C(=C/c1cn(C)c3ccc(OC)cc13)C(=O)N2
90
4. COc1ccc2c(c1)c(/C=C1\C(=O)Nc3ccc(S(=O)(=O)N(C)C)cc31)cn2C
91
5. COc1ccc2[nH]cc(/C=C3\C(=O)Nc4ccc(S(N)(=O)=O)cc43)c2c1
83
6. CN(C)S(=O)(=O)c1ccc2c(c1)/C(=C/c1cn(C)c3ccc(O)cc13)C(=O)N2
84

----------
TEST_SYSTEM: 3-phosphoinositide-dependent protein kinase 1 (Homo sapiens) (UniProt O15530)
Sequence (O15530 whole entry, looked up): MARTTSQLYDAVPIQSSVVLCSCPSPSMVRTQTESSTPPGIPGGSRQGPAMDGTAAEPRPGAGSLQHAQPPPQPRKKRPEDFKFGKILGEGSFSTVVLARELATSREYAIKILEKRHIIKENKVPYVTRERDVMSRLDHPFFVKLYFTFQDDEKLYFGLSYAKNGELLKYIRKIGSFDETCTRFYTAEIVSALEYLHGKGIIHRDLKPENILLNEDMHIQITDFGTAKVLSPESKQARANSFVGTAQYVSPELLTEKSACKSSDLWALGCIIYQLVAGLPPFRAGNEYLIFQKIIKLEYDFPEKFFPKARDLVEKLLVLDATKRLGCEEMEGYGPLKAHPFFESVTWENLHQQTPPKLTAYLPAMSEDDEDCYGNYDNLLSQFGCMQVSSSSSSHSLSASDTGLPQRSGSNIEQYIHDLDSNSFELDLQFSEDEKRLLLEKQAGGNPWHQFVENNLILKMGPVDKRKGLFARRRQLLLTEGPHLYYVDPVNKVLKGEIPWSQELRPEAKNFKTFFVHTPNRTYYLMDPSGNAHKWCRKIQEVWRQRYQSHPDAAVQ
ASSAY_TEXT: Inhibition of human PDK1 assessed as residual activity at 1 uM relative to control
ASSAY_READOUT: Activity (%)

Here's what some known entries look like.
1. COc1ccc2c(c1)c(/C=C1\C(=O)Nc3ccc(S(=O)(=O)N(C)C)cc31)cn2C
84
2. COc1ccc2c(c1)c(/C=C1\C(=O)Nc3ccc(S(N)(=O)=O)cc31)cn2C
75
3. CN(C)S(=O)(=O)c1ccc2c(c1)/C(=C/c1cn(C)c3ccc(O)cc13)C(=O)N2
83
4. Cn1cc(/C=C2\C(=O)Nc3ccc(S(N)(=O)=O)cc32)c2ccccc21
70

a = COc1ccc2[nH]cc(/C=C3\C(=O)Nc4ccc(S(N)(=O)=O)cc43)c2c1
b = CNS(=O)(=O)c1ccc2c(c1)/C(=C/c1cn(C)c3ccc(OC)cc13)C(=O)N2
Prompt line: Out of a and b , name the one with the higher Activity. Use the label to indicate which entry you chose.
Response line: b

----------
TEST_SYSTEM: Homeodomain-interacting protein kinase 2 (Homo sapiens) (UniProt Q9H2X6)
Sequence (Q9H2X6 whole entry, looked up): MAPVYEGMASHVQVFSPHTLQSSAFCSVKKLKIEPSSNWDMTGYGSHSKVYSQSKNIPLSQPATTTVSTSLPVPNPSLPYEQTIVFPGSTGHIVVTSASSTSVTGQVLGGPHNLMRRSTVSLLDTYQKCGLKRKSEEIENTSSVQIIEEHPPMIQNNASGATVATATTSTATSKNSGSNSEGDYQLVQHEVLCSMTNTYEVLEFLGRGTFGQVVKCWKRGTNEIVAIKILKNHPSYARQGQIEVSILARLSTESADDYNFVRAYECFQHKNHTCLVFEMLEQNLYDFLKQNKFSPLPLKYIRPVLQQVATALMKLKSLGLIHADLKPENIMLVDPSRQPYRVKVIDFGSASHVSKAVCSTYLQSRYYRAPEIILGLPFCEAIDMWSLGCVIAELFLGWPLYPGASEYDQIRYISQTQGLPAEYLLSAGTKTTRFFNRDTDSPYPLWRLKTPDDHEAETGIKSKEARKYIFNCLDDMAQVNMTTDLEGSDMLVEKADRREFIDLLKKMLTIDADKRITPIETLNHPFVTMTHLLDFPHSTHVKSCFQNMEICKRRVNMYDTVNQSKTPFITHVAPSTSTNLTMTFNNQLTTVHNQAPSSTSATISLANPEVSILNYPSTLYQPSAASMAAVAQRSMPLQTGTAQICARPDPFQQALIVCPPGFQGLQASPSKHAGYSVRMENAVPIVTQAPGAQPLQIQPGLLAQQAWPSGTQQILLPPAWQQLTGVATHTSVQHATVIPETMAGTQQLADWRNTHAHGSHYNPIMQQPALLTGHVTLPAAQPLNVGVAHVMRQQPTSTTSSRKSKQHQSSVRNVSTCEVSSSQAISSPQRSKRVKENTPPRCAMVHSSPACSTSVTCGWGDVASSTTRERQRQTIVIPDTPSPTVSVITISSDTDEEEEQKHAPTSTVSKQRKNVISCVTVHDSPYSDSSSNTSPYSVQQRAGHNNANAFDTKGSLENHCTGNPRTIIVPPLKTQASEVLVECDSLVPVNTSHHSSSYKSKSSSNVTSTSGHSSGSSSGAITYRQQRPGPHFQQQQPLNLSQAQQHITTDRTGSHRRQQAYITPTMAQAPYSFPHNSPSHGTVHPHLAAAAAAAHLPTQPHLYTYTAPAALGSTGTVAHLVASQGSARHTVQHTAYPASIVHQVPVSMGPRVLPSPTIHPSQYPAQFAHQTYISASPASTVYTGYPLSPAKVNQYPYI
ASSAY_TEXT: Inhibition of human HIPK2 assessed as residual activity at 1 uM relative to control
ASSAY_READOUT: Activity (%)

1) COc1ccc2c(c1)c(/C=C1\C(=O)Nc3ccc(S(=O)(=O)N(C)C)cc31)cn2C
85
2) COc1ccc2[nH]cc(/C=C3\C(=O)Nc4ccc(S(N)(=O)=O)cc43)c2c1
84
3) CNS(=O)(=O)c1ccc2c(c1)/C(=C/c1cn(C)c3ccc(OC)cc13)C(=O)N2
102
4) COc1ccc2c(c1)c(/C=C1\C(=O)Nc3ccc(S(N)(=O)=O)cc31)cn2C
81
5) CN(C)S(=O)(=O)c1ccc2c(c1)/C(=C/c1cn(C)c3ccc(O)cc13)C(=O)N2
96
6) Cn1cc(/C=C2\C(=O)Nc3ccc(S(N)(=O)=O)cc32)c2ccccc21
103
